Source listed as paper PMC5421785.

Attribute: IC50
target: HLA-DRB1*01:01 (Homo sapiens, UniProt P01903+P01911, A100R/D57E/F55L/F60I/F76Y/I96L/L162R/M171V/P40L/Q125E/R42F/V115G/Y59C); construct: EBV transformed homozygous cell lines were used as sources of MHC molecules; endogenous in cells; host or cells: EBV transformed homozygous cell lines; experiment: HLA class II peptide binding, inhibition of radiolabeled peptide binding to purified MHC; details: read-out: DRB1*01:01 binding capacity, WT peptide (IC50 nM)
Number in nM, nothing else.

// worked examples, IC50 included
# Compound string, Measured
rows = [
    ("CC(C)C[C@H](NC(=O)[C@H](CCCNC(=N)N)NC(=O)[C@H](CO)NC(=O)[C@H](CCCCN)NC(=O)CNC(=O)[C@H](CCC(N)=O)NC(=O)CNC(=O)[C@H](CCCCN)NC(=O)[C@H](CC(C)C)NC(=O)[C@H](CCC(N)=O)NC(=O)[C@@H](N)CCC(=O)O)C(=O)NCC(=O)N[C@@H](CC(=O)O)C(=O)N[C@@H](CC(C)C)C(=O)N[C@@H](Cc1ccc(O)cc1)C(=O)O", 3720),
    ("CC(C)C[C@H](NC(=O)[C@H](CO)NC(=O)[C@H](CCCNC(=N)N)NC(=O)[C@H](CO)NC(=O)[C@@H](NC(=O)[C@H](CO)NC(=O)[C@@H]1CCCN1)[C@@H](C)O)C(=O)N[C@@H](Cc1ccc(O)cc1)C(=O)N[C@@H](C)C(=O)N[C@@H](CO)C(=O)N[C@@H](CO)C(=O)N1CCC[C@H]1C(=O)NCC(=O)NCC(=O)N[C@H](C(=O)O)C(C)C", 290),
]

Query block: State the recorded IC50 for this entry: CSCC[C@H](NC(=O)[C@H](CCC(=O)O)NC(=O)[C@H](CCC(=O)O)NC(=O)[C@H](CCC(=O)O)NC(=O)[C@H](Cc1ccc(O)cc1)NC(=O)[C@H](CC(C)C)NC(=O)[C@H](CC(=O)O)NC(=O)CNC(=O)[C@@H](N)CC(C)C)C(=O)N[C@@H](CCCNC(=N)N)C(=O)N[C@@H](CCC(=O)O)C(=O)N[C@@H](CC(C)C)C(=O)N[C@@H](CCCNC(=N)N)C(=O)N[C@@H](CCCNC(=N)N)C(=O)N[C@@H](CCC(N)=O)C(=O)O
Result block: 9380

###

molecular target: HLA-DRB1*04:01 (Homo sapiens, UniProt P01903+P01911, A100K/A169T/F76Y/I96L/K127E/L162R/M171V/N62H/P40V/Q125Y/R42H/S133A/S149N/S66Y/V115G/V209L/W38E); construct: EBV transformed homozygous cell lines were used as sources of MHC molecules; endogenous in cells; host or cells: EBV transformed homozygous cell lines; experiment: HLA class II peptide binding, inhibition of radiolabeled peptide binding to purified MHC; conditions: citrullinated 15-mer (X); purified MHC, inhibition of radiolabeled peptide binding; dash = IC50 >40,000 nM; read-out: DRB1*04:01 binding capacity, Cit peptide (IC50 nM)
Square brackets hold non-standard residues; d marks the D form. Peptide text beside a SMILES is read from it. Cit = NC(=O)NCCC[C@H](N)C(=O)O
TRUE if IC50 is below 3000 nM. FALSE if not; exact matches included in FALSE.

Consider the following illustrative entries.
# Compound, Answer label
measured = [
    ("CC(C)C[C@H](NC(=O)[C@@H](N)CO)C(=O)N[C@@H](Cc1ccc(O)cc1)C(=O)N[C@@H](C)C(=O)N[C@@H](CO)C(=O)N[C@@H](CO)C(=O)N1CCC[C@H]1C(=O)NCC(=O)NCC(=O)N[C@H](C(=O)N[C@@H](Cc1ccc(O)cc1)C(=O)N[C@@H](C)C(=O)N[C@H](C(=O)N[C@@H](CCCNC(N)=O)C(=O)N[C@@H](CO)C(=O)O)[C@@H](C)O)C(C)C", "TRUE"),
    ("CC(C)C[C@H](NC(=O)[C@H](CO)NC(=O)[C@H](Cc1ccc(O)cc1)NC(=O)[C@@H](NC(=O)[C@H](CCCNC(N)=O)NC(=O)[C@@H](NC(=O)[C@H](CO)NC(=O)[C@@H](NC(=O)[C@@H](NC(=O)[C@@H](NC(=O)[C@H](Cc1ccc(O)cc1)NC(=O)[C@H](CO)NC(=O)[C@H](CCCNC(=N)N)NC(=O)[C@H](CO)NC(=O)[C@@H](N)CO)C(C)C)[C@@H](C)O)[C@@H](C)O)[C@@H](C)O)[C@@H](C)O)C(=O)O [SSRSYVTTSTXTYSL] (H-SSRSYVTTST[Cit]TYSL-OH)", "TRUE"),
]

Query block: hey, is IC50 for CC(C)C[C@H](NC(=O)[C@H](CO)NC(=O)[C@H](CCCNC(N)=O)NC(=O)[C@H](CO)NC(=O)[C@@H](NC(=O)[C@H](CO)NC(=O)[C@@H]1CCCN1)[C@@H](C)O)C(=O)N[C@@H](Cc1ccc(O)cc1)C(=O)N[C@@H](C)C(=O)N[C@@H](CO)C(=O)N[C@@H](CO)C(=O)N1CCC[C@H]1C(=O)NCC(=O)NCC(=O)N[C@H](C(=O)O)C(C)C lower than 3000 nM or not?
Result block: TRUE

Query block: hey, is IC50 for CSCC[C@H](NC(=O)[C@H](CCC(=O)O)NC(=O)[C@H](CCC(=O)O)NC(=O)[C@@H](N)CCC(=O)O)C(=O)N[C@@H](CCCNC(N)=O)C(=O)N[C@@H](CCC(=O)O)C(=O)N[C@@H](CC(C)C)C(=O)N[C@@H](CCCNC(=N)N)C(=O)N[C@@H](CCCNC(=N)N)C(=O)N[C@@H](CCC(N)=O)C(=O)N[C@H](C(=O)N[C@@H](CC(=O)O)C(=O)N[C@@H](CCC(N)=O)C(=O)N[C@@H](CC(C)C)C(=O)N[C@H](C(=O)O)[C@@H](C)O)C(C)C [EEEMXELRRQVDQLT] (H-EEEM[Cit]ELRRQVDQLT-OH) lower than 3000 nM or not?
Result block: FALSE

Query block: hey, is IC50 for CSCC[C@H](NC(=O)[C@H](CCCNC(N)=O)NC(=O)[C@H](CCCNC(=N)N)NC(=O)[C@H](Cc1ccc(O)cc1)NC(=O)[C@H](CO)NC(=O)[C@H](CO)NC(=O)[C@H](CO)NC(=O)[C@H](CO)NC(=O)[C@@H](N)C(C)C)C(=O)N[C@@H](Cc1ccccc1)C(=O)NCC(=O)NCC(=O)N1CCC[C@H]1C(=O)NCC(=O)N[C@H](C(=O)O)[C@@H](C)O [VSSSSYRXMFGGPGT] (H-VSSSSYR[Cit]MFGGPGT-OH) lower than 3000 nM or not?
Result block: TRUE

Query block: hey, is IC50 for CC[C@H](C)[C@H](NC(=O)[C@@H](N)CC(=O)O)C(=O)N[C@@H](CCSC)C(=O)N[C@@H](CCCNC(=N)N)C(=O)N[C@@H](CC(C)C)C(=O)N[C@@H](CCCNC(N)=O)C(=O)N[C@@H](CCC(=O)O)C(=O)N[C@@H](CCCCN)C(=O)N[C@@H](CC(C)C)C(=O)N[C@@H](CCC(N)=O)C(=O)N[C@@H](CCC(=O)O)C(=O)N[C@@H](CCC(=O)O)C(=O)N[C@@H](CCSC)C(=O)N[C@@H](CC(C)C)C(=O)N[C@@H](CCC(N)=O)C(=O)O [DIMRLXEKLQEEMLQ] (H-DIMRL[Cit]EKLQEEMLQ-OH) lower than 3000 nM or not?
Result block: FALSE

Query block: hey, is IC50 for CC(C)C[C@H](NC(=O)[C@H](CO)NC(=O)[C@H](Cc1ccc(O)cc1)NC(=O)[C@@H](NC(=O)[C@H](CCCNC(=N)N)NC(=O)[C@@H](NC(=O)[C@H](CO)NC(=O)[C@@H](NC(=O)[C@@H](NC(=O)[C@@H](NC(=O)[C@H](Cc1ccc(O)cc1)NC(=O)[C@H](CO)NC(=O)[C@H](CCCNC(N)=O)NC(=O)[C@H](CO)NC(=O)[C@@H](N)CO)C(C)C)[C@@H](C)O)[C@@H](C)O)[C@@H](C)O)[C@@H](C)O)C(=O)O [SSXSYVTTSTRTYSL] (H-SS[Cit]SYVTTSTRTYSL-OH) lower than 3000 nM or not?
Result block: TRUE

Query block: hey, is IC50 for CC(C)C[C@H](NC(=O)[C@H](CCC(N)=O)NC(=O)[C@H](CC(=O)O)NC(=O)[C@@H](NC(=O)[C@H](CCC(N)=O)NC(=O)[C@H](CCCNC(=N)N)NC(=O)[C@H](CCCNC(=N)N)NC(=O)[C@H](CC(C)C)NC(=O)[C@@H](N)CCC(=O)O)C(C)C)C(=O)N[C@H](C(=O)N[C@@H](CC(N)=O)C(=O)N[C@@H](CC(=O)O)C(=O)N[C@@H](CCCCN)C(=O)N[C@@H](C)C(=O)N[C@@H](CCCNC(N)=O)C(=O)O)[C@@H](C)O [ELRRQVDQLTNDKAX] (H-ELRRQVDQLTNDKA[Cit]-OH) lower than 3000 nM or not?
Result block: FALSE

Query block: hey, is IC50 for CC(C)C[C@H](NC(=O)[C@H](CCCNC(N)=O)NC(=O)[C@H](C)N)C(=O)N[C@@H](CC(=O)O)C(=O)N[C@@H](CC(C)C)C(=O)N[C@@H](CCC(=O)O)C(=O)N[C@@H](CCCNC(=N)N)C(=O)N[C@@H](CCCCN)C(=O)N[C@H](C(=O)N[C@@H](CCC(=O)O)C(=O)N[C@@H](CO)C(=O)N[C@@H](CC(C)C)C(=O)N[C@@H](CCC(N)=O)C(=O)N[C@@H](CCC(=O)O)C(=O)N[C@@H](CCC(=O)O)C(=O)O)C(C)C [AXLDLERKVESLQEE] (H-A[Cit]LDLERKVESLQEE-OH) lower than 3000 nM or not?
Result block: FALSE
